Assay: self-splicing fitness, log relative to wild type (ln ratio); higher = more splicing; Tetrahymena group I intron in knt gene, E. coli kanamycin selection, DiMSum; sequences stand for … in CUCUCU…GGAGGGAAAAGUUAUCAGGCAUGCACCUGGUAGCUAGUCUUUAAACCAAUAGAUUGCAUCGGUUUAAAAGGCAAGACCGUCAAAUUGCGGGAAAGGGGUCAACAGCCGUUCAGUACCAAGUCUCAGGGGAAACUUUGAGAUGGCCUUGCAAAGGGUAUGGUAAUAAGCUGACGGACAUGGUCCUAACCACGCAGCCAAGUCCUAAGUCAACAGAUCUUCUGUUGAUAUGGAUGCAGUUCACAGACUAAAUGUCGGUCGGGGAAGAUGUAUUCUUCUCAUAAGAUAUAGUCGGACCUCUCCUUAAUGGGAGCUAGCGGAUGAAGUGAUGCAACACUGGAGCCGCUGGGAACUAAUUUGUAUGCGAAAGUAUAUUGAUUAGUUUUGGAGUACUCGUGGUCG;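 further: selection with 25 µg/mL kanamycin versus none on LB agar overnight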
Conditions: 30 °C
Output true for self-splicing fitness (ln) not less than -1; output false otherwise.

{"columns": ["biopolymer sequence", "qualitative label"],
 "data": [
  ["UUGAAGCAAUAUUACGUAAU", "false"],
  ["AAACAGCAAUAUUACGCGUG", "false"],
  ["GCACAGCAAUAUUACGGACG", "false"],
  ["AGGAAGCAAUAUUACGCCGU", "false"],
  ["UGGCAGCAAUAUUACGCACU", "true"],
  ["AUUGAGCAAUAUUACGUGAU", "false"],
  ["UUGAAGCAAUAUUACGGGUA", "true"],
  ["GCGGAGCAAUAUUACGGGCC", "false"]
]}

* * *

Test: self-splicing fitness, log relative to wild type (ln ratio); higher = more splicing; Tetrahymena group I intron in knt gene, E. coli kanamycin selection, DiMSum; sequences stand for … in CUCUCU…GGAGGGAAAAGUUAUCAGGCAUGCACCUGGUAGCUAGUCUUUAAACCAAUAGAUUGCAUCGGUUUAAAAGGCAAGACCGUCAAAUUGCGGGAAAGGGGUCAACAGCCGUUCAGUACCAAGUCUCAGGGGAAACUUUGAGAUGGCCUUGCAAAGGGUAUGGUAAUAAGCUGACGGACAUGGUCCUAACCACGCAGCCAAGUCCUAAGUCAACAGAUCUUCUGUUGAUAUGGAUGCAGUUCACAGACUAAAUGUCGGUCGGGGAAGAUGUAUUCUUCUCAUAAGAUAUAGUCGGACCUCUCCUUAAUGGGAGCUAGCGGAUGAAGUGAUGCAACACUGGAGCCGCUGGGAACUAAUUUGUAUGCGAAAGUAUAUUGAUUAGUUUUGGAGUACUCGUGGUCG
Conditions: 37 °C
Lab note: anything with self-splicing fitness (ln) at or over -0.5 counts as TRUE; the rest go in FALSE.

{"columns": ["biopolymer sequence", "qualitative label"],
 "data": [
  ["UUGCAGCAAUAUUACGACAG", "TRUE"],
  ["GUGAAGCAAUAUUACGAAUG", "FALSE"],
  ["CAGCAGCAAUAUUACGCGCU", "FALSE"],
  ["AUCAAGCAAUAUUACGUUUG", "FALSE"],
  ["AGGCAGCAAUAUUACGUGCA", "TRUE"],
  ["ACUCAGCAAUAUUACGGCAC", "FALSE"],
  ["UUUCAGCAAUAUUACGUUCG", "FALSE"],
  ["GUUCAGCAAUAUUACGUUCU", "FALSE"],
  ["GCGGAGCAAUAUUACGUACC", "TRUE"],
  ["UCCGAGCAAUAUUACGUUCG", "FALSE"],
  ["UCCCAGCAAUAUUACGCCGC", "FALSE"],
  ["CAACAGCAAUAUUACGUGCU", "FALSE"],
  ["GAGCAGCAAUAUUACGAUCU", "TRUE"],
  ["UGCUAGCAAUAUUACGACUU", "TRUE"],
  ["CCUAAGCAAUAUUACGGCAC", "FALSE"],
  ["CUGCAGCAAUAUUACGUCCU", "FALSE"]
]}

* * *

Below, each of the sequences is paired with its reported self-splicing fitness (ln) value.
Assay: self-splicing fitness, log relative to wild type (ln ratio); higher = more splicing; Tetrahymena group I intron in knt gene, E. coli kanamycin selection, DiMSum; sequences stand for … in CUCUCU…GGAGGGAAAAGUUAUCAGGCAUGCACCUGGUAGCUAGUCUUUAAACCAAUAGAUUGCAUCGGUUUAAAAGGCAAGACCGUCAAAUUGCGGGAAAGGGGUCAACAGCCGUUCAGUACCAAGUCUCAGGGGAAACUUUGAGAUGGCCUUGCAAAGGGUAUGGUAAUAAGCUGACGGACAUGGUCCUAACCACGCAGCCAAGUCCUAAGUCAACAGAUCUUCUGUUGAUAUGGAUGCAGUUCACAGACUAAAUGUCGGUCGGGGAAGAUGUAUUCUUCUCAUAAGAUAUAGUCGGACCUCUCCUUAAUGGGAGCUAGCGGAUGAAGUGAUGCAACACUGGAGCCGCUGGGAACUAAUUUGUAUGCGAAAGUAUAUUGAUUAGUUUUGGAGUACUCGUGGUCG
Settings: 37 °C

{"columns": ["biopolymer sequence", "self-splicing fitness (ln)"],
 "data": [
  ["AAAAAGCAAUAUUACGAGGA", -2.21],
  ["GACCAGCAAUAUUACGGGAG", -0.0889],
  ["GUAUAGCAAUAUUACGCACA", 0.279],
  ["CCUAAGCAAUAUUACGACAG", -1],
  ["CAGCAGCAAUAUUACGUAAU", -1.91],
  ["CCCGAGCAAUAUUACGGUGU", -1.67],
  ["GACAAGCAAUAUUACGACCG", -0.326],
  ["GUGCAGCAAUAUUACGCCGA", -0.832],
  ["CAUUAGCAAUAUUACGUGGA", -2.13],
  ["CCGGAGCAAUAUUACGACUG", -0.428],
  ["UGCAAGCAAUAUUACGAAAU", -2.04],
  ["AGUAAGCAAUAUUACGAAUC", -2.86],
  ["GUCAAGCAAUAUUACGCGGG", -3.33],
  ["AAUAAGCAAUAUUACGUGUU", -2.58],
  ["AAGAAGCAAUAUUACGAAGU", -2.12],
  ["AAGUAGCAAUAUUACGAUAC", -1.71]
]}

* * *

Test: self-splicing fitness, log relative to wild type (ln ratio); higher = more splicing; Tetrahymena group I intron in knt gene, E. coli kanamycin selection, DiMSum; sequences stand for … in CUCUCU…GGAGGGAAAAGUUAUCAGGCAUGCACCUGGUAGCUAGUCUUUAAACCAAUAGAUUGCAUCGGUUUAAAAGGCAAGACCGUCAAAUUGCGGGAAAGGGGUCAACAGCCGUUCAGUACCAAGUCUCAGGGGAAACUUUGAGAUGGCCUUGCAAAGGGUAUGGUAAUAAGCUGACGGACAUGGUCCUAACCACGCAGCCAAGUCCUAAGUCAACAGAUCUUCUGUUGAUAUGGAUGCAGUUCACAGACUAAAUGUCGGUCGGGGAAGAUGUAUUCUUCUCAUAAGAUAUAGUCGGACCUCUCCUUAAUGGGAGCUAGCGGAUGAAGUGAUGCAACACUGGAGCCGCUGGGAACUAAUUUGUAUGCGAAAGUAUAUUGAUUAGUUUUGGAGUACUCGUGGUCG
Settings: 37 °C
just bin them by self-splicing fitness (ln): bin 1 = under -2, bin 2 = from -2 up to -0.9, bin 3 = -0.9 and over

{"columns": ["biopolymer sequence", "qualitative label"],
 "data": [
  ["CUUUAGCAAUAUUACGCCAG", "bin 3"],
  ["AGGUAGCAAUAUUACGAGAC", "bin 1"],
  ["GGCAAGCAAUAUUACGUAUA", "bin 3"],
  ["ACGGAGCAAUAUUACGCUUA", "bin 2"],
  ["CGUCAGCAAUAUUACGGUGA", "bin 1"],
  ["GAUAAGCAAUAUUACGAAGU", "bin 2"],
  ["CACGAGCAAUAUUACGCCUG", "bin 1"],
  ["GCUGAGCAAUAUUACGAUUA", "bin 3"],
  ["GGGAAGCAAUAUUACGCUUG", "bin 3"],
  ["CUGGAGCAAUAUUACGACUA", "bin 2"],
  ["CACAAGCAAUAUUACGUUGA", "bin 2"],
  ["CGUGAGCAAUAUUACGAUGU", "bin 1"],
  ["GGUUAGCAAUAUUACGGGCG", "bin 3"],
  ["CAUAAGCAAUAUUACGAUUU", "bin 1"],
  ["GACGAGCAAUAUUACGGGCC", "bin 2"],
  ["GCAUAGCAAUAUUACGUUCC", "bin 1"],
  ["CAGAAGCAAUAUUACGGAAG", "bin 2"],
  ["UUAAAGCAAUAUUACGGACG", "bin 3"],
  ["AGCUAGCAAUAUUACGCUUG", "bin 1"],
  ["GGUUAGCAAUAUUACGAUUA", "bin 3"],
  ["CUCCAGCAAUAUUACGUUAG", "bin 2"],
  ["AGUUAGCAAUAUUACGUAAU", "bin 2"],
  ["UAAGAGCAAUAUUACGGGCG", "bin 1"],
  ["UAAAAGCAAUAUUACGCUAA", "bin 3"],
  ["GUUCAGCAAUAUUACGAUAG", "bin 2"],
  ["UCGAAGCAAUAUUACGCGGG", "bin 2"],
  ["GAAGAGCAAUAUUACGCCAC", "bin 1"],
  ["CCGGAGCAAUAUUACGCAAA", "bin 1"],
  ["GCAGAGCAAUAUUACGAGUA", "bin 2"],
  ["ACUGAGCAAUAUUACGACCU", "bin 3"],
  ["AUUAAGCAAUAUUACGUAGU", "bin 3"],
  ["AUCCAGCAAUAUUACGAACG", "bin 3"],
  ["GGUUAGCAAUAUUACGAUGG", "bin 2"],
  ["UCCUAGCAAUAUUACGAAGG", "bin 1"],
  ["CUAUAGCAAUAUUACGGGGC", "bin 2"],
  ["ACACAGCAAUAUUACGUCCG", "bin 3"],
  ["CAGCAGCAAUAUUACGCCGA", "bin 3"],
  ["UGAAAGCAAUAUUACGGGCG", "bin 3"],
  ["AAAGAGCAAUAUUACGGAAC", "bin 1"],
  ["GGGCAGCAAUAUUACGACUU", "bin 3"],
  ["GCUGAGCAAUAUUACGACGU", "bin 3"],
  ["AAUUAGCAAUAUUACGACUG", "bin 3"],
  ["UUGAAGCAAUAUUACGAGGA", "bin 3"],
  ["AGCAAGCAAUAUUACGUAUG", "bin 1"],
  ["GGCUAGCAAUAUUACGUCGU", "bin 3"],
  ["CAAUAGCAAUAUUACGUACC", "bin 1"],
  ["GACUAGCAAUAUUACGAAGG", "bin 2"],
  ["UUCCAGCAAUAUUACGUUUC", "bin 1"],
  ["AAACAGCAAUAUUACGUCAU", "bin 2"],
  ["GUGGAGCAAUAUUACGUAGG", "bin 3"],
  ["GGCCAGCAAUAUUACGCCAG", "bin 2"],
  ["GCCUAGCAAUAUUACGUACG", "bin 2"],
  ["AGUUAGCAAUAUUACGUCUC", "bin 1"],
  ["GGACAGCAAUAUUACGUUCC", "bin 1"],
  ["AAAUAGCAAUAUUACGGGUC", "bin 1"],
  ["UUACAGCAAUAUUACGACAG", "bin 3"],
  ["CAACAGCAAUAUUACGGCAC", "bin 2"],
  ["GCUCAGCAAUAUUACGAUGU", "bin 3"],
  ["ACAUAGCAAUAUUACGGGUC", "bin 1"],
  ["CGAUAGCAAUAUUACGCCCG", "bin 2"],
  ["UUCUAGCAAUAUUACGCGGA", "bin 1"]
]}

The measured values listed here are drawn from the supplement of paper PMC7877785.
